- Tested on: Balb/c mice
- Test details: Polypeptide chip-based vaccine immunogenicity scoring system
- Type: in vivo
- Measurement context: adjuvant Adju-Phos; 7 peptides co-immunized in mice
Catalogue of 2) Mouse performance B2 values
Provide a numeric answer; units are not to be included.

Example sequences with recorded 2) Mouse performance B2:
>  <Chain>
SVYAWNRKR (SARS-CoV-2) [SEQ ID NO:3]

>  <Reported>
5

$$$$
>  <Chain>
KLDDKDPNFK (SARS-CoV-2) [SEQ ID NO:20]

>  <Reported>
2

$$$$
>  <Chain>
MEVTPSGTWLTY (SARS-CoV-2) [SEQ ID NO:22]

>  <Reported>
4

$$$$

// below: 2) Mouse performance B2 requested for another sequence
Recall and state the measured 2) Mouse performance B2 for LQDLKWARFPKS [SEQ ID NO:29] .
3

----------
- Tested on: Balb/c mice
- Test details: Polypeptide chip-based vaccine immunogenicity scoring system
- Format: in vivo
- Measurement context: Embodiment III; polypeptide-KLH; value of the whole mix
Catalogue of C4: Percentage of the intersection in set B values
Provide a numeric answer; units are not to be included.

Example sequences with recorded C4: Percentage of the intersection in set B:
>  <Chain>
RGGSYTNDKAC (SARS-CoV-2) [SEQ ID NO:2]

>  <Test target>
Balb/c mice

>  <Reported>
1.493

$$$$
>  <Chain>
VYDPLQPEL (SARS-CoV-2) [SEQ ID NO:34]

>  <Test target>
Balb/c mice

>  <Reported>
1.759

$$$$
>  <Chain>
GVYYPDKVFR (SARS-CoV-2) [SEQ ID NO:7]

>  <Test target>
Balb/c mice

>  <Reported>
0.189

$$$$
>  <Chain>
IRGGDGKMKD (SARS-CoV-2) [SEQ ID NO:40]

>  <Test target>
Balb/c mice

>  <Reported>
1.759

$$$$
>  <Chain>
KEIDRLNEV [SEQ ID NO:12]

>  <Test target>
Balb/c mice

>  <Reported>
0.440

$$$$

// below: C4: Percentage of the intersection in set B requested for another sequence
Recall and state the measured C4: Percentage of the intersection in set B for SNLKPFER (SARS-CoV-2) [SEQ ID NO:36] .
0.275

----------
- Test system: Balb/c mice
- Test details: Polypeptide chip-based vaccine immunogenicity scoring system
- Format: in vivo
- Measurement context: adjuvant MA103A; 7 peptides co-immunized in mice
Quantity name: 2) Mouse performance B1
Provide a numeric answer; units are not to be included.

Example sequences with recorded 2) Mouse performance B1:
>  <Chain>
LQDLKWARFPKS [SEQ ID NO:29]

>  <Reported>
5

$$$$
>  <Chain>
MEVTPSGTWLTY (SARS-CoV-2) [SEQ ID NO:22]

>  <Reported>
5

$$$$
>  <Chain>
YGANKDGI (SARS-CoV-2) [SEQ ID NO:21]

>  <Reported>
4

$$$$

Recall and state the measured 2) Mouse performance B1 for SNLKPFER (SARS-CoV-2) [SEQ ID NO:36] .
4

Recall and state the measured 2) Mouse performance B1 for KLDDKDPNFK (SARS-CoV-2) [SEQ ID NO:20] .
2

Recall and state the measured 2) Mouse performance B1 for SVYAWNRKR (SARS-CoV-2) [SEQ ID NO:3] .
5

Recall and state the measured 2) Mouse performance B1 for VYDPLQPEL (SARS-CoV-2) [SEQ ID NO:34] .
5
